This collection of values is drawn from patent US6403561B1.

Counter-ions that a name gives are not always drawn.
test_readout: melting point

Use these answered entries as a reference point.
# molecule, melting point
records = [
    ("CCCCNC(=O)C1c2ccccc2CN1C(=O)[C@@H](N)CC (mixture of isomers) (as salt: oxalate)", "90 to 92 °C"),
    ("CCCCNC(=O)C1Cc2cc(F)ccc2N1C(=O)[C@@H](N)CC (mixture of isomers) (as salt: oxalate)", "105 to 110 °C"),
    ("CCCCNC(=O)C1Cc2c(ccc(OC)c2OC)N1C(=O)[C@@H](N)CC.O=C(O)C(=O)O (mixture of isomers)", "196.1 to 197.5 °C"),
]

Next molecule, melting point to be filled in.
Lookup: Need melting point of CCCCNC(=O)[C@@H]1Cc2cc(O)ccc2N1C(=O)[C@@H](N)CC.O=C(O)C(=O)O , thanks.
Found: 156.5 to 158 °C

###

Structures can show the parent of a compound that is named as a salt. Where a SMILES comes first, the peptide text is derived from it. The star is where a group is joined. NHBu = CCCCN*
test_readout: melting point

# compound, result
data = [
    ("CCCCNC(=O)[C@@H]1CCCN1C(=O)[C@@H](N)C(C)C (as salt: oxalate) [Example 8, L-valyl-L-proline n-butylamide] (H-Val-Pro-NHBu)", "165 to 166 °C"),
]

Lookup: Need melting point of CCCCNC(=O)C1Cc2c(OC)cccc2N1C(=O)[C@@H](N)CC.O=C(O)C(=O)O (mixture of isomers) , thanks.
Found: 117 to 119 °C

Lookup: Need melting point of CC[C@H](C)CNC(=O)[C@@H]1CCCN1C(=O)[C@@H](N)CC (as salt: oxalate) , thanks.
Found: 135 to 136 °C

Lookup: Need melting point of CCCCNC(=O)[C@@H]1Cc2cc(Cl)ccc2N1C(=O)[C@@H](N)CC.O=C(O)C(F)(F)F , thanks.
Found: 83 to 84 °C

Lookup: Need melting point of CCCNC(=O)[C@@H]1Cc2ccccc2N1C(=O)[C@@H](N)CC (as salt: oxalate) (hydrate or solvate) , thanks.
Found: 130 to 131 °C

Lookup: Need melting point of CCCCCNC(=O)[C@@H]1CCCN1C(=O)[C@@H](N)CC (as salt: oxalate) , thanks.
Found: 140 to 141 °C
